Please go through the items and note down their residual activity.
- MEASURED_ON: SRC (human) (UniProt P12931)
- Sequence (P12931 whole entry, looked up): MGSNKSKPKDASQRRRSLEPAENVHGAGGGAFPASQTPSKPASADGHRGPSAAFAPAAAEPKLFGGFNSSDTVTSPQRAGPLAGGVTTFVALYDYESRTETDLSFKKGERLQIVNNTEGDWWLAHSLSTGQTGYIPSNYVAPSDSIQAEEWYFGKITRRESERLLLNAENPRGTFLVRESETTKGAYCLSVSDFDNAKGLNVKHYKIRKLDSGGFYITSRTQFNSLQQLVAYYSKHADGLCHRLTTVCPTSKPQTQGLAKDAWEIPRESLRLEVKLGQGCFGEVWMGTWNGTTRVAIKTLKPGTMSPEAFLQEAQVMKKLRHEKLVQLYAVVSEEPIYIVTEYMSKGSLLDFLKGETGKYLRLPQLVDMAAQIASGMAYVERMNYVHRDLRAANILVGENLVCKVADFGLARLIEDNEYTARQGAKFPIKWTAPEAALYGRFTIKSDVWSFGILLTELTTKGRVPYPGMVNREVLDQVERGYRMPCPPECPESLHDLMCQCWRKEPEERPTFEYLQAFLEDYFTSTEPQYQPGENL
- METHOD_NOTES: radiometric filter-binding kinase assay
- STUDY_CONDITIONS: compound 1.0 µM
The reply should consist of the numeric value with the unit placed after it.

get_value(item= `Cc1ccc(-c2ccc3c(ccc4sc5c(c43)NC[C@@H](C)NC5=O)n2)cn1` , readout=residual activity) returns 116%

get_value(item= `NC(=O)c1ccc(-c2ccc(Oc3cncc4sc(-c5nn[nH]n5)cc34)cc2)cc1` , readout=residual activity) returns 85%

get_value(item= `CN1C(=O)[C@@H](Cc2c[nH]c3ccccc23)NC1=S` , readout=residual activity) returns 98%

get_value(item= `Cc1ccc(Sc2cnc(Nc3cccc(Br)n3)s2)cc1C(=O)N1CCN(C(=O)CN)CC1` , readout=residual activity) returns 20%

get_value(item= Nc1cccc2c1CN(C1CCC(=O)NC1=O)C2=O (centres undefined) , readout=residual activity) returns 105%

get_value(item= `O=C(Nc1nc2cc(C(F)(F)F)cc(NC3CC3)n2n1)c1cccnc1` , readout=residual activity) returns 102%

get_value(item= `O=C(NCCCNc1nc(Nc2cccc(CN3CCOCC3)c2)ncc1C1CC1)C1CCC1` , readout=residual activity) returns 70%

get_value(item= `CC(C)(C#N)c1ccc(N2C(=O)OCc3cnc4ccc(-c5cnc6ccccc6c5)cc4c32)cc1` , readout=residual activity) returns 83%

get_value(item= `COc1ccc(-n2ncc3cnc(Nc4cc(OC)c(OC)c(OCCCN5CCN(C)CC5)c4)nc32)cc1` , readout=residual activity) returns 3%
